System: α7 integrin promoter
measurementDescription: muscle cell-based assay: α7βgal+/− myoblasts/myotubes, LacZ reporter, β-galactosidase cleavage of FDG
Parameters: species or system mouse; scale not given here
conditions: Myotubes, 1 uM

- molecule: "CCN(CC)CCNC(=O)c1c(C)[nH]c(CC2C(=O)Nc3ccc(F)cc32)c1C (stereo not shown) [drawing 515]"
  Results in α7+/− β-galactosidase assay: "−0.02655"
- molecule: "O=C1Nc2ccccc2/C1=C1/Nc2ccccc2/C1=N\\O [drawing 514]"
  Results in α7+/− β-galactosidase assay: "−0.1122"
- molecule: "Cc1[nH]c(/C=C2\\C(=O)Nc3ccc([S+](=O)([O-])Cc4c(Cl)cccc4Cl)cc32)c(C)c1C(=O)C1CCCN1CN1CCCC1 (stereo not shown) [drawing 517]"
  Results in α7+/− β-galactosidase assay: "−0.08557"
- molecule: "Cc1cc(C)c(/C=C2\\C(=O)Nc3ccccc32)[nH]1 [drawing 510]"
  Results in α7+/− β-galactosidase assay: "−0.08303"

====

System: α7 integrin promoter
measurementDescription: muscle cell-based assay: α7βgal+/− myoblasts/myotubes, LacZ reporter, β-galactosidase cleavage of FDG
Set-up: species or system mouse
conditions: Myoblasts, 5 uM
The label depends only on Result in α7+/− β-galactosidase assay: satisfied if it is at least -0.1, not satisfied if it is smaller.

- compound: "Cc1cc(C)c(/C=C2\\C(=O)Nc3ccccc32)[nH]1 [drawing 720]"
  label: "not satisfied"
- compound: "Cc1cc(C)c(/C=C2\\C(=O)Nc3ccccc32)[nH]1 [drawing 718]"
  label: "not satisfied"
- compound: "CCN(CC)CCNC(=O)c1c(C)[nH]c(CC2C(=O)Nc3ccc(F)cc32)c1C (stereo not drawn) [drawing 723]"
  label: "not satisfied"
- compound: "O=C1Nc2ccccc2/C1=C1/Nc2ccccc2/C1=N\\O [drawing 722]"
  label: "not satisfied"
- compound: "Cc1[nH]c(/C=C2\\C(=O)Nc3ccc([S+](=O)([O-])Cc4c(Cl)cccc4Cl)cc32)c(C)c1C(=O)C1CCCN1CN1CCCC1 (stereo not drawn) [drawing 725]"
  label: "not satisfied"
- compound: "CCOC(=O)C1CCCN(C(=O)CNS(=O)(=O)c2ccc(Br)s2)C1 (stereo not drawn) [drawing 708]"
  label: "not satisfied"
- compound: "COc1ccc(C(=O)Nc2ccc(Cl)cn2)cc1Cl [drawing 706]"
  label: "not satisfied"
- compound: "Cc1nnc(SCC(=O)c2ccc(Br)cc2)s1 [drawing 709]"
  label: "satisfied"
- compound: "CCOc1ccccc1NC(=O)c1cccc2c1C(=O)N(C1CCCCC1)C2 [drawing 707]"
  label: "satisfied"

====

Test system: α7 integrin promoter
measurementDescription: muscle cell-based assay: α7βgal+/− myoblasts/myotubes, LacZ reporter, β-galactosidase cleavage of FDG
Design: species or system mouse; scale not given here
conditions: Myoblasts, 10 uM
measurementLabel: Results in α7+/− β-galactosidase assay

- compound: "CCOc1ccccc1NC(=O)COC(=O)CNS(=O)(=O)c1ccc(C)cc1 [drawing 648]"
  quantitativeResult: "−0.06749"
- compound: "CC1Cc2ccccc2N1C(=O)CSc1nnc(N)s1 (stereo not shown) [drawing 631]"
  quantitativeResult: 0.1155
- compound: "CC(NC(=O)c1ccc(C(C)(C)C)cc1)C(c1cccs1)N1CCOCC1 (stereo not shown) [drawing 610]"
  quantitativeResult: "−0.02239"
- compound: "CC(C)c1ccc(OC(=O)c2cccc(S(=O)(=O)N3CCN(C)CC3)c2)cc1 [drawing 606]"
  quantitativeResult: "−0.02381"
- compound: "O=C1Nc2ccccc2/C1=C/c1ccccc1Cl [drawing 529]"
  quantitativeResult: "−0.1355"
- compound: "CC1CC(C)(C)N=C(S)N1CC(=O)N(C)Cc1ccccc1 (stereo not shown) [drawing 593]"
  quantitativeResult: 0.244
- compound: "CC1CCN(C(CNS(=O)(=O)c2ccccc2)c2ccccc2)CC1 (stereo not shown) [drawing 612]"
  quantitativeResult: "−0.1141"
- compound: "CCOC(=O)C1=C(NC(=O)c2ccc(OC)c(S(=O)(=O)N3CCCCC3C)c2)Nc2ccccc2N=C1CC (stereo not shown) [drawing 637]"
  quantitativeResult: "−0.01618"
- compound: "N#CC1=C2SCN(c3ccccc3)CN2C(=O)CC1c1cccs1 (stereo not shown) [drawing 568]"
  quantitativeResult: "−0.05714"
- compound: "O=S(=O)(N/C(=N/C1CCCCC1)c1ccccc1F)c1ccccc1 [drawing 542]"
  quantitativeResult: 0.0429

====

Test system: α7 integrin promoter
measurementDescription: muscle cell-based assay: α7βgal+/− myoblasts/myotubes, LacZ reporter, β-galactosidase cleavage of FDG
Parameters: species or system mouse
conditions: Myotubes; compound at 1 uM
Results in a α7+/− β-galactosidase assay, Myotubes, 1 uM for assorted compounds
measurementLabel: Results in a α7+/− β-galactosidase assay, Myotubes, 1 uM

- compound: "Cc1cc(OCC(=O)NC(C)C)ccc1Cl [drawing 472]"
  quantitativeResult: "−0.04637"
- compound: "CCC(C)n1nc(O)cc1N (stereo not drawn) [drawing 433]"
  quantitativeResult: "−0.05991"
- compound: "COc1cc(C=O)ccc1OCC(=O)Nc1ccc2c(c1)OCO2 [drawing 425]"
  quantitativeResult: "−0.1633"
- compound: "Cc1cccc(Sc2nc(-c3ccccc3)ccc2C#N)c1 [drawing 390]"
  quantitativeResult: "−0.1813"
- compound: "O=C1Cc2ccccc2/C1=C\\c1ccc([N+](=O)[O-])cc1 [drawing 495]"
  quantitativeResult: "−0.0268"
- compound: "O=C1Nc2ccccc2/C1=C/c1cccnc1 [drawing 327]"
  quantitativeResult: 0.1859

====

Results in a α7+/− β-galactosidase assay, Myotubes, 1 uM overview
Tested on: α7 integrin promoter
measurementDescription: muscle cell-based assay: α7βgal+/− myoblasts/myotubes, LacZ reporter, β-galactosidase cleavage of FDG
Design: species or system mouse
conditions: Myotubes; compound at 1 uM
measurementLabel: Results in a α7+/− β-galactosidase assay, Myotubes, 1 uM

- compound: "CCCc1nnc(SCC(=O)NC2CCCC2)n1CCOC [drawing 467]"
  result: 0.01763
- compound: "Cc1ccc(NS(=O)(=O)c2ccc(-c3ccc(O)nn3)o2)c(C)c1 [drawing 477]"
  result: 0.003075
- compound: "Cc1ccccc1NC(=O)NCCCN1CCN(C)CC1 [drawing 329]"
  result: 0.04605

====

System: α7 integrin promoter
measurementDescription: muscle cell-based assay: α7βgal+/− myoblasts/myotubes, LacZ reporter, β-galactosidase cleavage of FDG
Parameters: species or system mouse
conditions: Myotubes; compound at 1 uM
The following compounds are listed with their measured Results in a α7+/− β-galactosidase assay, Myotubes, 1 uM values.
measurementLabel: Results in a α7+/− β-galactosidase assay, Myotubes, 1 uM

- compound: "CC(C(=O)Nc1ccc(C#N)cc1)N(C)CC(=O)Nc1cccc(F)c1 (stereo not shown) [drawing 421]"
  quantitativeResult: "−0.03964"
- compound: "COc1ccc2c(c1)/C(=C\\c1cccc(/C=C3/C(=O)Nc4ccc(OC)cc43)n1)C(=O)N2 [drawing 443]"
  quantitativeResult: "−0.2351"
- compound: "Cc1ccc(C(=O)N2CCN(S(=O)(=O)N3CCOCC3)CC2)cc1 [drawing 434]"
  quantitativeResult: "−0.169"
- compound: "CCN1C(=O)/C(=C(/C#N)c2nc3ccccc3[nH]2)c2ccccc21 [drawing 316]"
  quantitativeResult: "−0.06381"
- compound: "COC(=O)Cn1c(=O)c2c(nc3n2CC(C)CN3Cc2ccccc2)n(C)c1=O (stereo not shown) [drawing 415]"
  quantitativeResult: 0.04855
- compound: "COc1c(Cl)cc(/C=C2\\C(=O)Nc3ccccc32)cc1Cl [drawing 505]"
  quantitativeResult: "−0.1313"
- compound: "O=C1c2ccccc2C(=O)C1(CC(O)O)c1ccccc1 [drawing 474]"
  quantitativeResult: 0.05823
- compound: "COc1ccccc1CC(=O)Nc1cc(S(=O)(=O)N2CCOCC2)ccc1N1CCOCC1 [drawing 491]"
  quantitativeResult: 0.04702
- compound: "Cc1ccc2c(c1)/C(=C/c1ccco1)C(=O)N2 [drawing 488]"
  quantitativeResult: "−0.00615"
- compound: "COc1ccc(/N=N/c2ccc(N)nc2N)cc1 [drawing 368]"
  quantitativeResult: 0.1699
- compound: "Cn1ccc(C(=O)Nc2cccnc2Cl)n1 [drawing 502]"
  quantitativeResult: "−0.05775"
- compound: "Cc1ccsc1CN(C)CC(=O)Cc1ccc([N+](=O)[O-])cc1Cl [drawing 473]"
  quantitativeResult: "−0.06852"
- compound: "O=C1CCC(C(=O)N2CCSCC2)CN1Cc1ccc(Cl)cc1 (stereo not shown) [drawing 489]"
  quantitativeResult: 0.1369
- compound: "CC1(C)Cc2c(c(N3CCOCC3)nc3sc(C(=O)Nc4ccccc4)c(N)c23)CO1 [drawing 330]"
  quantitativeResult: 0.1201
- compound: "COc1cc(NC(=O)OCc2ccccc2)c2ncccc2c1 [drawing 349]"
  quantitativeResult: 0.03267
- compound: "Cc1nc(/C=C2\\C(=O)Nc3ccccc32)c[nH]1 [drawing 480]"
  quantitativeResult: "−0.05703"
